The measurements presented in this section are drawn from patent US5550124A.

Tested Target: peripheral-type BZ receptors (Rattus norvegicus)
Construct: displacement of ^3 H-RO5-4864 in brain homogenates; from tissue; host or cells: brain homogenates
Method Summary: Competitive binding assay, displacement of 3H-Ro5-4864 in brain homogenates
Condition Parameters: displacement of 3H-Ro5-4864 in brain homogenates; * data by procedure described herein; read-out: IC50
Measured Quantity: pIC50
One number for each entry, as −log10 of the molar value.

Report measured pIC50; entry is CCC(C)N(C)C(=O)c1cc2ccccc2c(-c2cc([N+](=O)[O-])ccc2F)n1 (stereo not shown) [PK 14105] 8.35

* * *

Tested Target: peripheral-type BZ receptors (Rattus norvegicus)
Construct: displacement of ^3 H-RO5-4864 in brain homogenates; from tissue; host or cells: brain homogenates
Method Summary: Competitive binding assay, displacement of 3H-Ro5-4864 in brain homogenates
Condition Parameters: displacement of 3H-Ro5-4864 in brain homogenates; * data by procedure described herein
Measured Quantity: IC50 (µM)
Answers are plain numbers, in µM.

Report measured IC50; entry is CN1C(=O)CN=C(c2ccc(Cl)cc2)c2cc(F)ccc21 0.0334

* * *

Kindly state IC50 for each of the entries shown.
Tested Target: peripheral-type BZ receptors (Rattus norvegicus, UniProt P16257)
Construct: displacement of ^3 H-RO5-4864 in brain homogenates; from tissue; host or cells: brain homogenates
Method Summary: Competitive binding assay, displacement of 3H-Ro5-4864 in brain homogenates
Give bare numbers, in µM.

CN1C(=O)CN=C(c2ccccc2)c2ccccc21 ... 1.23

Report measured IC50; entry is O=C1CN=C(c2ccccc2Cl)c2cc([N+](=O)[O-])ccc2N1 9.18

* * *

Method Summary: Physical trauma (head injury) model, grip score 18 hours post-injury
Type: in vivo, mice (male CF-1)
Condition Parameters: grip score 18 h post trauma, FIGS. 1-8
Measured Quantity: effectiveness in treatment of CNS trauma/damage (in words)

CCC(C)N(C)C(=O)c1cc2ccccc2c(-c2ccccc2Cl)n1 (stereo not drawn) [PK 11195] ... effective
CN1C(=O)CN=C(c2ccc(Cl)cc2)c2cc(F)ccc21 [Ro5-6531] ... effective
CN1C(=O)CN=C(c2ccc(Cl)cc2)c2cc(Cl)ccc21 [Ro5-4864] ... effective
